Data provenance: ChEMBL document CHEMBL1909046

Biological target: Alpha-2A adrenergic receptor (Homo sapiens); further: in other assays of this panel Not Active means under 50% inhibition at 10 µM
Sequence (P08913 whole entry): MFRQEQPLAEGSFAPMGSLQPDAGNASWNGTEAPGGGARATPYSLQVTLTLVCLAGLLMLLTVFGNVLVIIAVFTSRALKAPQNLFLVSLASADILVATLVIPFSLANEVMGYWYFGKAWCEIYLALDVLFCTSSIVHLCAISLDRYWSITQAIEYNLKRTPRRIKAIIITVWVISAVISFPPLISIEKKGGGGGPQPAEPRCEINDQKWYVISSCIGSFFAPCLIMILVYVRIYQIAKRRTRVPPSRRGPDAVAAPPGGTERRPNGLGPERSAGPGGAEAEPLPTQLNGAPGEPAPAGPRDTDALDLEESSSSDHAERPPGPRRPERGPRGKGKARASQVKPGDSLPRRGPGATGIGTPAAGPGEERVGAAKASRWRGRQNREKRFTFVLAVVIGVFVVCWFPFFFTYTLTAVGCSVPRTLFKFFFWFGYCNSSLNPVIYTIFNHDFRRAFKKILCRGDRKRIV
Assay type: cell membranes, Sf9, Membrane
Conditions: sf9
reported-endpoint: IC50

[[record]]
substance = "GENTAMICIN"
reported_endpoint = "IC50"
reported = "Not Active"

[[record]]
substance = "MANGANESE CHLORIDE ANHYDROUS"
reported_endpoint = "IC50"
reported = "Not Active"

[[record]]
substance = "NYSTATIN"
reported_endpoint = "IC50"
reported = "Not Active"

[[record]]
substance = "GRAMICIDIN"
reported_endpoint = "IC50"
reported = "Not Active"

[[record]]
substance = "SODIUM ORTHOVANAD"
reported_endpoint = "IC50"
reported = "Not Active"

[[record]]
substance = "GADOPENTETATE DIMEGLUMINE"
reported_endpoint = "IC50"
reported = "Not Active"


* * *

experiment: DRUGMATRIX: Purinergic P2X radioligand binding (ligand: [3H] alpha, beta-Methylene-ATP); format: cell membranes, Oryctolagus cuniculus, New Zealand albino, Urinary bladder, Membrane; details: Not Active = under 50% inhibition at 10 µM
reported-endpoint: Ki

[[record]]
compound = "CS(=O)(=O)c1ccc([C@@H](O)[C@@H](CO)NC(=O)C(Cl)Cl)cc1"
reported_endpoint = "Ki"
reported = "Not Active"

[[record]]
compound = "C[n+]1ccc(-c2cc[n+](C)cc2)cc1.[Cl-].[Cl-] [PARAQUAT DICHLORIDE]"
reported_endpoint = "Ki"
reported = "Not Active"

[[record]]
compound = "COc1cc(N)c(Cl)cc1C(=O)NC1CCN(CCCOc2ccc(F)cc2)CC1OC (stereo not drawn) [CISAPRIDE]"
reported_endpoint = "Ki"
reported = "Not Active"

[[record]]
compound = "Nc1ccc2c3c(cccc13)C(=O)NC2=O"
reported_endpoint = "Ki"
reported = "Not Active"

[[record]]
compound = "C[C@H]1C[C@@H]2[C@H]([C@@H](O)C[C@@]3(C)[C@H]2CC[C@]3(O)C(=O)CO)[C@@]2(C)C=CC(=O)C=C12"
reported_endpoint = "Ki"
reported = "Not Active"

[[record]]
compound = "CC(C(=O)O)c1ccc2oc(-c3ccc(Cl)cc3)nc2c1 (stereo not drawn)"
reported_endpoint = "Ki"
reported = "Not Active"

[[record]]
compound = "CN(C)[C@@H]1C(O)=C(C(N)=O)C(=O)[C@@]2(O)C(O)=C3C(=O)c4c(O)ccc(Cl)c4[C@@](C)(O)[C@H]3C[C@@H]12"
reported_endpoint = "Ki"
reported = "Not Active"

[[record]]
compound = "Brc1c(NC2=NCCN2)ccc2nccnc12"
reported_endpoint = "Ki"
reported = "Not Active"


* * *

biological target: Cathepsin G (Homo sapiens); type: tissue-based; details: neutrophil; further: in other assays of this panel Not Active means under 50% inhibition at 10 µM;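 further: inhibition of Cathepsin G enzyme activity, tested on an AMC-conjugated peptide substrate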
Sequence (P08311 whole entry): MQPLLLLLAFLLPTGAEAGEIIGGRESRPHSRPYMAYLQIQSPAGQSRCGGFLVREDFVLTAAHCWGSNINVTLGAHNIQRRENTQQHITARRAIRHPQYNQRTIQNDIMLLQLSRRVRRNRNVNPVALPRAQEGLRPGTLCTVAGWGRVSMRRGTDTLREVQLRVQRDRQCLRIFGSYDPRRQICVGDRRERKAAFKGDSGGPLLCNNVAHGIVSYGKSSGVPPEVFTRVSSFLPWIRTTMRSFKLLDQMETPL
reported-endpoint: IC50

[[record]]
compound = "CC(C)(C)NC(=O)[C@H]1CC[C@H]2[C@@H]3CC[C@H]4NC(=O)C=C[C@]4(C)[C@H]3CC[C@]12C [FINASTERIDE]"
reported = "Not Active"

[[record]]
compound = "Nc1ccn([C@@H]2O[C@H](CO)[C@@H](O)[C@@H]2O)c(=O)n1"
reported = "Not Active"

[[record]]
compound = "O=C(O)c1cccnc1Nc1cccc(C(F)(F)F)c1"
reported = "Not Active"

[[record]]
compound = "NNc1nncc2ccccc12 [HYDRALAZINE]"
reported = "Not Active"

[[record]]
compound = "CCN(CC)CCOc1ccc(/C(=C(/Cl)c2ccccc2)c2ccccc2)cc1"
reported = "Not Active"

[[record]]
compound = "O=C/C=C/c1ccccc1"
reported = "Not Active"

[[record]]
compound = "CC(C)Oc1ccc2c(=O)c(-c3ccccc3)coc2c1"
reported = "Not Active"

[[record]]
compound = "Cc1nnc2n1-c1ccc(Cl)cc1C(c1ccccc1)=NC2"
reported = "Not Active"

[[record]]
compound = "NC(=O)N1C(=O)/C(=C(\\O)c2cccs2)c2cc(Cl)ccc21"
reported = "Not Active"


* * *

biological target: Glucocorticoid receptor (Homo sapiens, UniProt P04150); test: biochemical; further: in other assays of this panel Not Active means under 50% inhibition at 10 µM
Sequence (P04150 whole entry): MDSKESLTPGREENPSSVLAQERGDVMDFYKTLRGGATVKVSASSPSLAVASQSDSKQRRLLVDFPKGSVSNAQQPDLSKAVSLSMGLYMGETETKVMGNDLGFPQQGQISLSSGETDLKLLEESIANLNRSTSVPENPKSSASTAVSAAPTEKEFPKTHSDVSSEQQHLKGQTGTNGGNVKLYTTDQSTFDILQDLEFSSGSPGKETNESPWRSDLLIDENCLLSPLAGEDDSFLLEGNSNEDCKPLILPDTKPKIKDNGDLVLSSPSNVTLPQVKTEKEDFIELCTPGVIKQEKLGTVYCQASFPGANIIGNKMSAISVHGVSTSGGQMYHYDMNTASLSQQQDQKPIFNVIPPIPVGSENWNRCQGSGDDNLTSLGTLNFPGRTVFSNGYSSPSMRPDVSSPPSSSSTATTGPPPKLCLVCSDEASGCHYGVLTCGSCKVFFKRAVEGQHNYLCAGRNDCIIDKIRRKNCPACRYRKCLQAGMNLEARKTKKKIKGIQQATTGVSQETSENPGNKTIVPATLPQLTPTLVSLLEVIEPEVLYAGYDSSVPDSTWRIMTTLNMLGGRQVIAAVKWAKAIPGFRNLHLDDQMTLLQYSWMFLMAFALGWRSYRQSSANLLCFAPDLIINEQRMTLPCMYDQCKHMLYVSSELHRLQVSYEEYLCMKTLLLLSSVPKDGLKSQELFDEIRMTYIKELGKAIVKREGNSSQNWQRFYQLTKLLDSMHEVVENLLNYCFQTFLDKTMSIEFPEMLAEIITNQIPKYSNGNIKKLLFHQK
Mark each entry yes (1) if its Ki sits below 20 nM, and no (0) for all others.

[[record]]
compound = "CC(=O)[C@H]1[C@H](C#N)C[C@H]2[C@@H]3CC=C4C[C@@H](O)CC[C@]4(C)[C@H]3CC[C@@]21C"
target_or_system = "Glucocorticoid receptor (Homo sapiens, UniProt P04150)"
label = "no (0)"

[[record]]
compound = "CC(=O)[C@@]1(O)CC[C@H]2[C@@H]3CCC4=CC(=O)CC[C@]4(C)[C@H]3CC[C@@]21C [HYDROXYPROGESTERONE]"
target_or_system = "Glucocorticoid receptor (Homo sapiens, UniProt P04150)"
label = "no (0)"

[[record]]
compound = "C[C@@H]1C[C@H]2[C@@H]3CCC4=CC(=O)C=C[C@]4(C)[C@@]3(F)[C@@H](O)C[C@]2(C)[C@H]1C(=O)CO"
target_or_system = "Glucocorticoid receptor (Homo sapiens, UniProt P04150)"
label = "yes (1)"

[[record]]
compound = "C#CC1(O)CC[C@H]2[C@@H]3CCC4=CC(=O)CC[C@@H]4[C@H]3CC[C@@]21CC (stereo not given in full)"
target_or_system = "Glucocorticoid receptor (Homo sapiens, UniProt P04150)"
label = "no (0)"

[[record]]
compound = "CCC(=O)O[C@]1(C(=O)CCl)[C@@H](C)C[C@H]2[C@@H]3CCC4=CC(=O)C=C[C@]4(C)[C@@]3(F)[C@@H](O)C[C@@]21C [CLOBETASOL PROPIONATE]"
target_or_system = "Glucocorticoid receptor (Homo sapiens, UniProt P04150)"
label = "yes (1)"


* * *

experiment: DRUGMATRIX: Calcium Channel Type L, Dihydropyridine radioligand binding (ligand: [3H] Nitrendipine); format: cell membranes, Rattus norvegicus, Wistar, Cerebral cortex, Membrane; details: Not Active = under 50% inhibition at 10 µM
reported-endpoint: IC50

[[record]]
compound = "COC(=O)CCc1ccc(OCC(O)CNC(C)C)cc1 (stereo unspecified)"
reported_endpoint = "IC50"
reported = "Not Active"

[[record]]
compound = "O=C1CN=C(c2ccccc2Cl)c2cc([N+](=O)[O-])ccc2N1"
reported_endpoint = "IC50"
reported = "Not Active"

[[record]]
compound = "CCC(=O)O[C@]1(C(=O)CCl)[C@@H](C)C[C@H]2[C@@H]3CCC4=CC(=O)C=C[C@]4(C)[C@@]3(F)[C@@H](O)C[C@@]21C [CLOBETASOL PROPIONATE]"
reported_endpoint = "IC50"
reported = "Not Active"

[[record]]
compound = "Brc1c(NC2=NCCN2)ccc2nccnc12"
reported_endpoint = "IC50"
reported = "Not Active"

[[record]]
compound = "CC(C)=CCC/C(C)=C/CO"
reported_endpoint = "IC50"
reported = "Not Active"

[[record]]
compound = "CC(=O)Oc1ccc(C(c2ccc(OC(C)=O)cc2)c2ccccn2)cc1"
reported_endpoint = "IC50"
reported = "Not Active"

[[record]]
compound = "CCCCNc1ccc(C(=O)OCCN(C)C)cc1"
reported_endpoint = "IC50"
reported = "Not Active"

[[record]]
compound = "CC[C@@H](C(=O)[C@@H](C)[C@@H](O)[C@H](C)[C@@H]1O[C@@H]([C@@H](CC)C(=O)O)CC[C@@H]1C)[C@H]1O[C@]2(C=C[C@@H](O)[C@]3(CC[C@@](C)([C@H]4CC[C@](O)(CC)[C@H](C)O4)O3)O2)[C@H](C)C[C@@H]1C"
reported_endpoint = "IC50"
reported = "Not Active"

[[record]]
compound = "C[n+]1ccccc1/C=N/O.[Cl-] [PRALIDOXIME CHLORIDE]"
reported_endpoint = "IC50"
reported = "Not Active"

[[record]]
compound = "COC(=O)Nc1nc2ccc([S+]([O-])c3ccccc3)cc2[nH]1 (stereo unspecified)"
reported_endpoint = "IC50"
reported = "Not Active"

[[record]]
compound = "C[C@@H]1O[C@@H](O[C@@H]2C=C3CC[C@@H]4[C@H](CC[C@]5(C)[C@@H](c6ccc(=O)oc6)CC[C@]45O)[C@@]3(C)CC2)[C@H](O)[C@H](O)[C@H]1O"
reported_endpoint = "IC50"
reported = "Not Active"

[[record]]
compound = "CC(C)(C)NC(=O)[C@H]1CC[C@H]2[C@@H]3CC[C@H]4NC(=O)C=C[C@]4(C)[C@H]3CC[C@]12C [FINASTERIDE]"
reported_endpoint = "IC50"
reported = "Not Active"

[[record]]
compound = "CO[C@@H]1[C@@H](OC)[C@H](C)[C@@](O)(CC(=O)O)O[C@H]1[C@H](C)[C@H]1O[C@@]2(CC[C@@](C)([C@H]3CC[C@@](C)([C@@H]4O[C@@H]([C@H]5O[C@](C)(O)[C@H](C)C[C@@H]5C)C[C@@H]4O[C@@H]4C[C@H](OC)[C@@H](OC)[C@H](C)O4)O3)O2)C[C@H](O)[C@H]1C"
reported_endpoint = "IC50"
reported = "Not Active"

[[record]]
compound = "CCCN(CCC)S(=O)(=O)c1ccc(C(=O)O)cc1"
reported_endpoint = "IC50"
reported = "Not Active"

[[record]]
compound = "COc1cc2nc(N3CCN(C(=O)C4CCCO4)CC3)nc(N)c2cc1OC (stereo unspecified)"
reported_endpoint = "IC50"
reported = "Not Active"

[[record]]
compound = "O=C(Nc1ccc(Br)cc1)c1cc(Br)cc(Br)c1O"
reported_endpoint = "IC50"
reported = "Not Active"

